tested on: BT-474; test: normalised viability (% of control), CellTiter-Blue; higher = more viable cells (about 100 = DMSO control); settings: 1000 nM; incubation time: 72 h
quantity: normalised viability (%)
Quick reminder: number only, in %, skip the unit.

O=C(O)CCCc1ccc(N(CCCl)CCCl)cc1; 112

q: Any idea what normalised viability was measured for CN1CCN(CCOc2cc(OC3CCOCC3)c3c(Nc4c(Cl)ccc5c4OCO5)ncnc3c2)CC1 ?
a: 85.2

q: Quick check: normalised viability of CN(C)CCN1C(=O)c2cccc3cc(N)cc(c23)C1=O [Amonafide] ?
a: 108

q: Suppose we examine the molecule CC[C@]1(O)C[C@H]2CN(CCc3c([nH]c4ccccc34)[C@@](C(=O)OC)(c3cc4c(cc3OC)N(C=O)[C@H]3[C@@](O)(C(=O)OC)[C@H](OC(C)=O)[C@]5(CC)C=CCN6CC[C@]43[C@@H]65)C2)C1 ; what normalised viability value has been reported?
a: 50.6

q: Record request: normalised viability value, item CCCCCCCCc1ccc(CCC(N)(CO)CO)cc1
a: 113

q: Endpoint output: normalised viability of Cn1cncc1[C@@](N)(c1ccc(Cl)cc1)c1ccc2c(c1)c(-c1cccc(Cl)c1)cc(=O)n2C . Value?
a: 84.4

====

test system: Hs578T; assay: normalised response (% of control), CellTiter-Glo; higher = more viable cells (100 = DMSO, 0 = benzethonium chloride kill control); conditions: incubation time: 72 h
quantity: normalised response (%)
Your answer is read as %, so omit the unit and give the number.

Known results for compounds:
CN(C)C[C@@H]1CCn2cc(c3ccccc32)C2=C(C(=O)NC2=O)c2cn(c3ccccc23)CCO1 [Ruboxistaurin] (10 nM); 98.1
CNNCc1ccc(C(=O)NC(C)C)cc1 [Procarbazine] (1000 nM); 109
O=C(O)CCCc1ccc(N(CCCl)CCCl)cc1 [Chlorambucil] (1 nM); 107

--- query ---
q: # value lookup — system Hs578T, readout normalised response, item Cc1ccc(NC(=O)c2ccc(CN3CCN(C)CC3)cc2)cc1Nc1nccc(-c2cccnc2)n1 [Imatinib] (10 nM)
a: 107

====

tested on: CAL-51; assay: drug sensitivity score (DSS), CellTox Green (DSS (AUC-based score)); higher = stronger drug effect (viability inhibition or cytotoxicity); extreme values may be limits of the assay; conditions: incubation time: 72 h
Below, each of the molecules is paired with its reported drug sensitivity score value.
Write the number on its own, no unit after it.

CN(C)C[C@@H]1CCn2cc(c3ccccc32)C2=C(C(=O)NC2=O)c2cn(c3ccccc23)CCO1 [Ruboxistaurin]; 9.21
NS(=O)(=O)OC[C@@H]1C[C@@H](n2ccc3c(N[C@H]4CCc5ccccc54)ncnc32)C[C@@H]1O [Pevonedistat]; 25.3
Cn1cncc1[C@@](N)(c1ccc(Cl)cc1)c1ccc2c(c1)c(-c1cccc(Cl)c1)cc(=O)n2C [Tipifarnib]; 10.3
CN(C)CCN1C(=O)c2cccc3cc(N)cc(c23)C1=O [Amonafide]; 2.42
C[C@]12CC[C@H](O)CC1=CC[C@@H]1[C@@H]2CC[C@]2(C)C(c3cccnc3)=CC[C@@H]12 [Abiraterone]; 0

Read the next record carefully.
q: Any idea what drug sensitivity score was measured for CO[C@H]1C[C@@H]2CC[C@@H](C)[C@@](O)(O2)C(=O)C(=O)N2CCCC[C@H]2C(=O)O[C@H]([C@H](C)C[C@@H]2CC[C@@H](OCCO)[C@H](OC)C2)CC(=O)[C@H](C)/C=C(\C)[C@@H](O)[C@@H](OC)C(=O)[C@H](C)C[C@H](C)/C=C/C=C/C=C/1C [Everolimus] ?
a: 0
